Hey, just so you know, these numbers are from PubChem BioAssay.

Test: binders from COS7 lysate, DM2A8 probe, primary screen, torsin A project, cell lysate, small-molecule microarray, fluorescence 635/667 (AID 1065)
Conditions: higher = more signal, COS7 lysate expressing mutant human TOR1A
This section presents compounds with their documented composite z-score values.
experimental_readout: composite z-score

                                   compound  data_value
0  C[N+](C)(C)CCCC[C@@H]1NC(=O)[C@@H]2C[C@H](C(=O)NCCCCCN)[C@H](c3ccc(O)cc3)N2C1=O       0.896
1  O=C1C2C=CC(C(O)C=Cc3ccc([N+](=O)[O-])cc3)N(Nc3ccccc3F)C2C(=O)N1c1ccccc1 (stereo unspecified)       0.537
2  COC(=O)[C@H](Cc1ccccc1)N[C@H](/C=C/C1CC1)[C@@H](O)Cc1ccccc1         0.1
3  OB1C=CCC(CCc2ccccc2)O1 (stereo unspecified)      -0.334
4  CCOC(=O)C1=CC[C@@H](c2ccccc2)N(S(=O)(=O)c2ccc(C)cc2)[C@H]1c1ccc(CC)cc1     -0.0251
5  CC(C)CN1C(=O)[C@@]2(c3ccc([N+](=O)[O-])cc3)CC(=O)N(C3CCCCC3)[C@@H]2c2ccc(CO)cc21       -0.72

* * *

Test: changes in parasitized red cell lysis, either direction – P. falciparum Indochina, OD700, 3 h, PSAC antagonist project, primary screen (AID 1156)
Details: P. falciparum-infected erythrocytes, osmotic lysis, higher = more signal, called active from +8 up or from −8 down
# cutoff 2 applies to z-score; >= gives Yes, < gives No

compound	group_label
COc1cc2c(cc1OC)CN(C(=O)[C@H]1[C@@H]3C(=O)O[C@@H](c4ccccc4)[C@@H](c4ccccc4)N3[C@@H](c3ccccc3OCCO)[C@]13C(=O)Nc1ccc(C#CCCO)cc13)CC2	No
O=C1OCCC=C[C@H]2OC34C=CCN(CCN5CCOCC5)C(=O)[C@H]3N(CCCCCO)C(=O)[C@@H]4C12 (stereo partly specified)	Yes
C=C(C(=O)CC[C@H](OC(C)=O)c1ccccc1OCCO)C(C)C	No
COC(=O)C[C@H]1O[C@@H](CCc2ccccc2)[C@@H](C)[C@@H]1[Si](C)(C)c1ccc(OC)cc1	No
CCOC(=O)C[C@H]1[C@H](OC(=O)c2ccc(-c3ccccc3)cc2)[C@@H](NC(=O)c2ccccc2)c2cc(OCCCO)ccc2N1C(=O)c1ccc2ccccc2n1	No
C=CC[C@]1(C(=O)N2CCOCC2)N=C(c2ccc(OCCCO)cc2)O[C@H]1c1ccccc1N=[N+]=[N-]	Yes

* * *

Assay: probe aNOTCH3 binding on compound microarray – biochemical, small-molecule microarray, 635/667 nm fluorescence, primary screen (AID 1120);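 note: probe is a biotin-tagged antibody raised against NOTCH3 rather than NOTCH3 protein; score merges spot fluorescence near 667 nm with spot signal to noise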
Conditions: higher = more signal
experimental_readout: composite z-score

                                    compound  data_value
 0  CC(C)(C)OC(=O)CC[C@@]1(C(=O)N2CCCCC2)N=C(c2ccc(OCCCO)cc2)O[C@@H]1c1ccccc1       0.372
 1  COC(=O)[C@@]1(Cc2ccccc2)[C@H]2c3cc(C(=O)N4CCCC4)n(Cc4c(CO)[nH]cc(C)c4=O)c3C[C@H]2CN1C(=O)c1ccccc1      0.0076
 2  CC(C)[Si](C#C[Si](C(C)C)(C(C)C)C(C)C)(O[C@H](C)c1cn(Cc2ccccc2)nn1)C(C)C       0.379
 3  O=C(CS)NCCCCCNC(=O)[C@@H]1C[C@@H]2C(=O)NCC(=O)N2[C@@H]1c1ccc(O)cc1      -0.189
 4  O=C(CS)NCCCCCNC(=O)[C@@H]1C[C@@H]2C(=O)NCC(=O)N2[C@@H]1c1cccc(OCCO)c1      -0.162
 5  Cc1ccc(C2C3C(=O)CC4C(=O)N(c5ccccc5)C(=O)C4C3CN2S(=O)(=O)c2ccc(C)cc2)cc1 (configuration not stated)       0.469
 6  COC(=O)c1c2oc(c1C(=O)OC)C(=O)NC1(CCCCC1)c1cn(nn1)C[C@H](Cc1ccccc1)NC(=O)N[C@H](CO)CC2      -0.207
 7        COCC(=C=CC[C@H](O)c1ccccc1OCCO)CCO     -0.0048
 8  CC(C)CN1C(=O)[C@@]2(c3ccc([N+](=O)[O-])cc3)CC(=O)N(C3CCCCC3)[C@@H]2c2ccc(CO)cc21      -0.357
 9  CCCNC(=O)[C@@H]1c2ccccc2C(=O)N(Cc2ccccc2OC)[C@H]1c1ccc(CO)cc1     -0.0573
10  Cc1ccc(S[C@]2(C(=O)NCC(C)C)CC(=O)N(Cc3cc(C(F)(F)F)cc(C(F)(F)F)c3)[C@@H]2c2ccc(CO)cc2)cc1      -0.123
11  CCN(CC)c1ccc(N2CC=CC34O[C@@H]5C=CCOC(=O)[C@@H]5[C@H]3C(=O)N(CCCCCCO)[C@@H]4C2=O)cc1 (some centres not stated)      -0.126
